System: AMPK-alpha2
Construct: gene PRKAA2
Settings: concentration: 1 μM, replicates: in singlicate; n = 1;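 also: KINOMEscan kinase panel screen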
Hi! Could you tag entries with %Inh below 6% as rule met, and those at or above as rule not met? Much appreciated.

Some solved entries appear below for comparison.
O=C(O)COc1ncnc2cc(-c3ccc4[nH]ncc4c3)sc12; rule not met
Fc1cc(Cl)ccc1Nc1ccnc2cc(I)ccc12; rule met
Cn1ccc2ncnc(Oc3cccc(C(=O)Nc4ccccc4)c3)c21; rule met
Cl.Oc1ccc(-c2nc(-c3ccccc3)[nH]c2-c2ccncc2)cc1; rule met

Criterion: %Inh strictly below 6%. Is it met by CS(=O)(=O)c1ccc(-c2c(-c3ncn[nH]3)sc(N3CCOCC3)c2C#N)cc1 ? rule not met

----------
Measured %Inh of individual entries
Test system: MKNK1
Conditions: concentration: 1 μM, replicates: in singlicate; n = 1
Enter your answer as a number in %; do not include the unit.

Below, each entry is followed by its recorded %Inh result.
Cc1cccc(-c2cc(Nc3ccncc3)c3ccccc3n2)n1; 11
O=S(=O)(c1ccc(-c2ccnc3[nH]ccc23)cc1)N1CCCC1; 14
Nc1ncnc2[nH]c(-c3ccccc3)nc12; 0
Cc1ccc(C(=O)Nc2ccc(Nc3ccnc4cc(-c5ccccn5)ccc34)cc2O)cc1.Cl; 0
Cl.O=C(Nc1cccc(-c2nn3ncccc3c2-c2ccnc(Nc3cccnc3)n2)c1)c1c(F)cccc1F; 0

Next up:
Look up and report measured %Inh for this entry: COc1ccc(Nc2nccc(NCCNC(=O)Nc3ccccc3F)n2)cc1 24

----------
Tested on: ERK4
Construct: gene MAPK4
Conditions: concentration: 1 μM, replicates: in singlicate; n = 1
Class boundaries, taken from values of %Inh, are as follows: low-valued (below 10%), mid-valued (10% to below 30%), high-valued (30% or more)

Check out these entries, answers already filled in.
COc1cc(Nc2nccc(N3CCC(NC(=O)Nc4cc(C)ccc4C)C3)n2)cc(OC)c1OC (centres unmarked); low-valued
CCCc1ccc(S(=O)(=O)NC2CCN(c3ccnc(Nc4ccc(F)cc4)n3)C2)cc1 (centres unmarked); mid-valued
CCn1c(-c2cccnc2O)nc2cnccc21; low-valued
O=C(Nc1n[nH]c2nc(-c3nccs3)c(Br)cc12)C1CCCC1; high-valued
Cl.Oc1ccc(-c2nc(-c3ccccc3)[nH]c2-c2ccncc2)cc1; mid-valued

Sort into band: Clc1cc(Cl)cc(Nc2ccnc(Nc3cc(Cl)cc(Cl)c3)n2)c1 mid-valued

Field: class (%Inh) — entry: COc1ccc(Nc2nccc(NCCNC(=O)Nc3ccccc3F)n2)cc1 high-valued

Classify this compound: COc1ccccc1CNC(=O)c1cc(C(=O)c2ccccc2C)c[nH]1 mid-valued

# bin label for Cc1ccc(NC(=O)Nc2cc(C(C)(C)C)nn2-c2ccccc2)cc1 mid-valued

Textbook exercise: identify the category of the compound given here, CS(=O)(=O)c1ccc(-c2nc3n(c2-c2ccncc2)CCC3)cc1 , according to its measured value. high-valued

Which %Inh band matches CC(C)(C)c1ccc(C(=O)Nc2cn3cc(-c4cccnc4)ccc3n2)cc1 ? mid-valued

----------
Tested on: PRKG1
Settings: concentration: 1 μM, replicates: in singlicate; n = 1
Measured %Inh of individual entries
Field: numeric (%). Do not append units.

O=C(Nc1n[nH]c2cc(-c3cccc(F)c3F)ccc12)C1CC1; 0

Return reported %Inh for target or system PRKG1, item Cn1cncc1-c1ccc2ncnc(Nc3ccc(OCc4ccccc4)cc3)c2c1 . 26

Give measured %Inh for NC(=O)c1nnc2ccccc2c1N (PRKG1). 0

Please tell me the measured %Inh for COC(=O)c1c(-c2ccccc2)c2cc(C(=O)O)ccc2c(=O)n1Cc1ccccc1 ; system: PRKG1. 8

Give %Inh; test system PRKG1; compound O=S(=O)(c1ccc(-c2ccnc3[nH]ccc23)cc1)N1CCCC1 36

Give the observed %Inh of Cc1cccc(-c2cc(Nc3ccncc3)c3ccccc3n2)n1 for PRKG1. 0

Specify the recorded %Inh for O=c1cc(N2CCOCC2)nc2n(Cc3cccc(Cl)c3Cl)ccn12 , system: PRKG1. 0

Under PRKG1: report %Inh of Cc1cccc(-c2nc(Nc3ccncc3)c3ccccc3n2)n1 . 7
